What protein stability index was measured for each of the following?
B1: KLHL14 (parent)
chain: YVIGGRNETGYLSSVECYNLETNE

Variants of: B1
Assay: protein stability index of a GFP-peptide fusion (GPS, HEK-293T) (PSI 1-6); higher = more stable;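 also: lentivirally expressed fusions sorted by FACS into six bins by GFP to DsRed ratio, PSI derived from sequencing read proportions per bin multiplied by bin number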
Conditions: c terminus: a fixed tail appended
I only need the number, thanks.

Exercise: What measured protein stability index goes with `YTIGGRNETGYLSSVECYNLETNE` ?
Solution: 3.5

Exercise: What measured protein stability index goes with `YVIGGRNETGYSSSVECYNLETNE` ?
Solution: 2.59

Exercise: What measured protein stability index goes with `YVIGGRNETGYLSSVECYNLETNW` ?
Solution: 1.67

Exercise: What measured protein stability index goes with `YVIGGRNETGILSSVECYNLETNE` ?
Solution: 2.1

Exercise: What measured protein stability index goes with `YVIGGRNETGYLSSVRCYNLETNE` ?
Solution: 2.16

Exercise: What measured protein stability index goes with `GVIGGRNETGYLSSVECYNLETNE` ?
Solution: 4.99

Exercise: What measured protein stability index goes with `YVIGGRNETGYGSSVECYNLETNE` ?
Solution: 2.99

Exercise: What measured protein stability index goes with `YVIGFRNETGYLSSVECYNLETNE` ?
Solution: 2.41

Exercise: What measured protein stability index goes with `WVIGGRNETGYLSSVECYNLETNE` ?
Solution: 2.87

Exercise: What measured protein stability index goes with `YVIGGRNETGYLSSVECYNLETNL` ?
Solution: 2.27

Exercise: What measured protein stability index goes with `YVIGLRNETGYLSSVECYNLETNE` ?
Solution: 2.82

Exercise: What measured protein stability index goes with `YVIGGRNETGALSSVECYNLETNE` ?
Solution: 2.71

Exercise: What measured protein stability index goes with `YVIGGRNEGGYLSSVECYNLETNE` ?
Solution: 1.69

Exercise: What measured protein stability index goes with `YVIGGRNETGYLSSVECYNLRTNE` ?
Solution: 1.91

Exercise: What measured protein stability index goes with `FVIGGRNETGYLSSVECYNLETNE` ?
Solution: 2.19

Exercise: What measured protein stability index goes with `YVIGGRNETGYLSSVECYNLEGNE` ?
Solution: 1.86

Exercise: What measured protein stability index goes with `YVIGGTNETGYLSSVECYNLETNE` ?
Solution: 2.52

Exercise: What measured protein stability index goes with `YVIGWRNETGYLSSVECYNLETNE` ?
Solution: 2.92

Exercise: What measured protein stability index goes with `YVIGGRNETGYLSSVECYNLETND` ?
Solution: 2.14

Exercise: What measured protein stability index goes with `YVIGGWNETGYLSSVECYNLETNE` ?
Solution: 1.96

Exercise: What measured protein stability index goes with `YVIGGRNETGYLSSVPCYNLETNE` ?
Solution: 2.45

Exercise: What measured protein stability index goes with `YVIGGRNETGYLSSVECYNLETYE` ?
Solution: 1.75

Exercise: What measured protein stability index goes with `YVIGGRNETGTLSSVECYNLETNE` ?
Solution: 2.75

Exercise: What measured protein stability index goes with `YVIGGRNETGYLSSVECYNLEENE` ?
Solution: 2.84

Exercise: What measured protein stability index goes with `YVIGGRNETGYLSSVENYNLETNE` ?
Solution: 2.44

Exercise: What measured protein stability index goes with `YVIGGRNETGYLSSVECYNLETCE` ?
Solution: 2.45

Exercise: What measured protein stability index goes with `YVIGGRNETGYLSSVECYNGETNE` ?
Solution: 1.82

Exercise: What measured protein stability index goes with `YVIGGRNETGYLSSVECYNDETNE` ?
Solution: 2.79

Exercise: What measured protein stability index goes with `YVIGGRNETGYLSHVECYNLETNE` ?
Solution: 1.8

Exercise: What measured protein stability index goes with `YQIGGRNETGYLSSVECYNLETNE` ?
Solution: 2.7

Exercise: What measured protein stability index goes with `YVIGGRNERGYLSSVECYNLETNE` ?
Solution: 2.76

Exercise: What measured protein stability index goes with `YVIGGRNETGYLSSVECYNLETNQ` ?
Solution: 1.49

Exercise: What measured protein stability index goes with `YVIGGRNETKYLSSVECYNLETNE` ?
Solution: 2.13

Exercise: What measured protein stability index goes with `YVIGGRNETGDLSSVECYNLETNE` ?
Solution: 3.65

Exercise: What measured protein stability index goes with `YVHGGRNETGYLSSVECYNLETNE` ?
Solution: 1.83

Exercise: What measured protein stability index goes with `YVIGGRNETGYLSSVVCYNLETNE` ?
Solution: 3.5

Exercise: What measured protein stability index goes with `YVIGGRNETGYLSSVECYNMETNE` ?
Solution: 1.96

Exercise: What measured protein stability index goes with `YVIIGRNETGYLSSVECYNLETNE` ?
Solution: 2.1

Exercise: What measured protein stability index goes with `YVIGGRNETGYYSSVECYNLETNE` ?
Solution: 1.8

Exercise: What measured protein stability index goes with `YVIGGDNETGYLSSVECYNLETNE` ?
Solution: 2.57

Exercise: What measured protein stability index goes with `YVIGGRNETGYLSSVNCYNLETNE` ?
Solution: 2.33

Exercise: What measured protein stability index goes with `YVIGGRNETGYLSSVECYMLETNE` ?
Solution: 1.8

Exercise: What measured protein stability index goes with `YVIGGRNETGYLSTVECYNLETNE` ?
Solution: 1.99

Exercise: What measured protein stability index goes with `YVIGGRNETGYLSSVECYNLETNF` ?
Solution: 1.95

Exercise: What measured protein stability index goes with `YVISGRNETGYLSSVECYNLETNE` ?
Solution: 2.46

Exercise: What measured protein stability index goes with `YVIGGRNETGYLSSVACYNLETNE` ?
Solution: 1.27

These measurements were taken from the supplement of paper PMC10567573.
